# ASSAY SYSTEM: human amylin receptor (hAmyR3) (Homo sapiens, UniProt O60896+P30988)
# Construct: host or cells: BHK cells (Hollex-1 line: human calcitonin receptor (a) + CRE-Luc), further transfected with human RAMP3
# Sequence (P30988 25-474): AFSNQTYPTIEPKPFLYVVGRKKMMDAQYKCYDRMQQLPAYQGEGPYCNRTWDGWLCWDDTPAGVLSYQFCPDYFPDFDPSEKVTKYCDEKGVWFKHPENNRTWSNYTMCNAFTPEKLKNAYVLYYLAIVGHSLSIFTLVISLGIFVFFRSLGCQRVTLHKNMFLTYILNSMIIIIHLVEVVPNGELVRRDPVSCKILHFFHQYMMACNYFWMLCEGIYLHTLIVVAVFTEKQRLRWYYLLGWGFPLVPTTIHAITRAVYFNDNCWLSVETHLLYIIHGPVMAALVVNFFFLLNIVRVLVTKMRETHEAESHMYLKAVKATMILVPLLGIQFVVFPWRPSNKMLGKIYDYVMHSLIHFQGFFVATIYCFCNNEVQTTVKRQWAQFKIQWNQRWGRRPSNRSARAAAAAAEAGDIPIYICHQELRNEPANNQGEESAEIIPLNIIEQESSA
# Sequence (O60896 24-148): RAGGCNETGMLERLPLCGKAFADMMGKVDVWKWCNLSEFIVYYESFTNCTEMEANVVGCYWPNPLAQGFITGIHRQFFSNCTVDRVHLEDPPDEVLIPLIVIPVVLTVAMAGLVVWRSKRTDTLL
# PROTOCOL SUMMARY: Human amylin receptor in vitro potency assay (CRE-luciferase reporter, BHK cells);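 further: BHK cells expressing human calcitonin receptor plus RAMP3 (amylin-3 receptor) with a CRE-luciferase reporter, agonist activity read as luminescence from cAMP-driven transcription, 7-point serial dilutions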
# Format: cell-based
# STATED CONDITIONS: Table 4a; BHK hAmyR3/CRE-Luc cells, 3 hours; read-out: Human AmyR3 potency [EC50 (pM)]
Starred links: 1 amine or outer side, 2 acyl side, 3 side chain; linkers in the order of their positions; H or OH if unused. Non-standard residues stand in square brackets, D forms with d. Groups on a side chain read outwards from the residue. *: point of attachment. C20 diacid = O=C(O)CCCCCCCCCCCCCCCCCCC(=O)*; C18 diacid = O=C(O)CCCCCCCCCCCCCCCCC(=O)*; γGlu = O=C(O)[C@H](CCC(=O)[*:2])N[*:1]; Trx = NC[C@H]1CC[C@H](C(=O)O)CC1; AEEA = NCCOCCOCC(=O)O; Aib = CC(C)(N)C(=O)O; Ahx = NCCCCCC(=O)O
In plain terms, low EC50, meaning strictly below 8 pM, gives Yes, and everything else gives No.

Worked cases, answers included:
- SUBSTANCE: "H-H[Aib]EGTFTSDVSSYLEEQAARK([AEEA-AEEA-γGlu-C20 diacid])FIAWLVRGRGGGGGEASELSTAALGRLSAELHELATLPRTETGSGSP-NH2 [Compound 0562]"
  ASSAY SYSTEM: "human amylin receptor (hAmyR3) (Homo sapiens, UniProt O60896+P30988)"
  QUALITATIVE LABEL: "Yes"
- SUBSTANCE: "H-H[Aib]EGTFTSDVSSYLEEQAARK([AEEA-AEEA-γGlu-γGlu-γGlu-C20 diacid])FIEWLVRGRQEAASELSTAALGRLSAELHQLATLPRTETGSGSP-NH2 [Compound 0636]"
  ASSAY SYSTEM: "human amylin receptor (hAmyR3) (Homo sapiens, UniProt O60896+P30988)"
  QUALITATIVE LABEL: "No"
- SUBSTANCE: "H-H[Aib]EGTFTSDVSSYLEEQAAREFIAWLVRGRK([AEEA-γGlu-C18 diacid])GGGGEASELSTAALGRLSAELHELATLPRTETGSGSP-NH2 [Compound 0660]"
  ASSAY SYSTEM: "human amylin receptor (hAmyR3) (Homo sapiens, UniProt O60896+P30988)"
  QUALITATIVE LABEL: "No"

**Query** Quick check: EC50 of H-H[Aib]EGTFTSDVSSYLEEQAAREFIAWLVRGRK([Ahx-Ahx-γGlu-C20 diacid])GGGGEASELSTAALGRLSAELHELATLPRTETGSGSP-NH2 [Compound 0659] under 8 pM?
**Result** No

**Query** Quick check: EC50 of H-H[Aib]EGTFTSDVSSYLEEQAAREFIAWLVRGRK([AEEA-AEEA-γGlu-Trx-C20 diacid])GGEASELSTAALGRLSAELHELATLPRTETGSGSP-NH2 [Compound 0512] under 8 pM?
**Result** No

###

# PROTOCOL SUMMARY: Pharmacokinetic studies in Beagle dogs after oral administration of SNAC-based tablets
# Assay type: in vivo
# STATED CONDITIONS: dog, in vivo, po
Starred links: 1 amine or outer side, 2 acyl side, 3 side chain; linkers in the order of their positions; H or OH if unused. Non-standard residues stand in square brackets, D forms with d. Groups on a side chain read outwards from the residue. *: point of attachment. C20 diacid = O=C(O)CCCCCCCCCCCCCCCCCCC(=O)*; C16 diacid = O=C(O)CCCCCCCCCCCCCCC(=O)*; γGlu = O=C(O)[C@H](CCC(=O)[*:2])N[*:1]; εLys = N[C@@H](CCCCN[*:1])C(=O)[*:2]; Trx = NC[C@H]1CC[C@H](C(=O)O)CC1; AEEA = NCCOCCOCC(=O)O; Aib = CC(C)(N)C(=O)O
In plain terms, low AUC/D, meaning strictly below 30 kg·h/L, gives 1.0, and everything else gives 0.0.

- SUBSTANCE: "H-H[Aib]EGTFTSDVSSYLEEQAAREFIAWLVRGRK([εLys-AEEA-AEEA-γGlu-C20 diacid])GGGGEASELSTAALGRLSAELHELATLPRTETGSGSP-NH2 [Compound 0552]"
  QUALITATIVE LABEL: 1.0
- SUBSTANCE: "H-H[Aib]EGTFTSDVSSYLEEQAARK([AEEA-AEEA-γGlu-C20 diacid])FIAWLVRGGASELSTAALGRLSAELHELATLPRTETGSGSP-NH2 [Compound 0580]"
  QUALITATIVE LABEL: 1.0
- SUBSTANCE: "H-H[Aib]EGTFTSDVSK([AEEA-AEEA-γGlu-C16 diacid])YLEEQAARK([AEEA-AEEA-γGlu-C16 diacid])FIEWLVRGRGEGGGGGASELSTAALGRLSAELHELATLPRTETGSGSP-NH2 [Compound 0576]"
  QUALITATIVE LABEL: 1.0
- SUBSTANCE: "H-H[Aib]EGTFTSDVSK([AEEA-AEEA-γGlu-C16 diacid])YLEEQAARK([AEEA-AEEA-γGlu-C16 diacid])FIAWLVRGRQEGGGGGASELSTAALGRLSAELHELATLPRTETGSGSP-NH2 [Compound 0575]"
  QUALITATIVE LABEL: 1.0
- SUBSTANCE: "H-H[Aib]EGTFTSDK([AEEA-AEEA-γGlu-C16 diacid])SSYLEEQAAREFIAWLVRGRGGGGGEASELSTAALGRLSAELHK([AEEA-AEEA-γGlu-C16 diacid])LATLPRTETGSGSP-NH2 [Compound 0259]"
  QUALITATIVE LABEL: 0.0

**Query** Quick check: AUC/D of H-H[Aib]EGTFTSDVSSYLEEQAAREFIEWLVRGRK([AEEA-AEEA-γGlu-Trx-C20 diacid])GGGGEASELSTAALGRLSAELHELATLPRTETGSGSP-NH2 [Compound 0503] under 30 kg·h/L?
**Result** 1.0

**Query** Quick check: AUC/D of H-H[Aib]EGTFTSDVSSYLEEQAARK([εLys-AEEA-AEEA-γGlu-Trx-C20 diacid])FIEWLVRGRGEASELSTAALGRLSAELHELATLPRTETGSGSP-NH2 [Compound 0439] under 30 kg·h/L?
**Result** 1.0

**Query** Quick check: AUC/D of H-H[Aib]EGTFTSDVSK([AEEA-AEEA-γGlu-C16 diacid])YLEEQAARK([AEEA-AEEA-γGlu-C16 diacid])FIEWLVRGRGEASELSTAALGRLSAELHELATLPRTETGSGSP-NH2 [Compound 0577] under 30 kg·h/L?
**Result** 0.0

**Query** Quick check: AUC/D of H-H[Aib]EGTFTSDVSSYLEGQAAREFIAWLVRGRGQEPK([AEEA-AEEA-γGlu-Trx-C20 diacid])GQAPEASELSTAALGRLSAELHELATLPRTETGSGSP-NH2 [Compound 0539] under 30 kg·h/L?
**Result** 1.0

###

# PROTOCOL SUMMARY: Pharmacokinetic studies in Beagle dogs after oral administration of SNAC-based tablets
# Format: in vivo
# STATED CONDITIONS: dog, in vivo, po
Starred links: 1 amine or outer side, 2 acyl side, 3 side chain; linkers in the order of their positions; H or OH if unused. Non-standard residues stand in square brackets, D forms with d. Groups on a side chain read outwards from the residue. *: point of attachment. C20 diacid = O=C(O)CCCCCCCCCCCCCCCCCCC(=O)*; C18 diacid = O=C(O)CCCCCCCCCCCCCCCCC(=O)*; C16 diacid = O=C(O)CCCCCCCCCCCCCCC(=O)*; γGlu = O=C(O)[C@H](CCC(=O)[*:2])N[*:1]; Trx = NC[C@H]1CC[C@H](C(=O)O)CC1; AEEA = NCCOCCOCC(=O)O; Aib = CC(C)(N)C(=O)O
So I've got a bunch of substances here, and I need their Cmax/D values.
One number for each entry, in kg/L.

Worked examples follow.
- SUBSTANCE: "H-H[Aib]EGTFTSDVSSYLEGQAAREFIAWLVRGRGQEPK([AEEA-AEEA-γGlu-C18 diacid])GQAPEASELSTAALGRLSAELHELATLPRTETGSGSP-NH2 [Compound 0084]"
  MEASURED ENDPOINT: "Cmax/D"
  VALUE UNITS: "kg/L"
  REPORTED VALUE: 0.36
- SUBSTANCE: "H-H[Aib]EGTFTSDVSSYLEEK([AEEA-AEEA-γGlu-Trx-C20 diacid])AAREFIAWLVRGRGGGGEASELSTAALGRLSAELHELATLPRTETGSGSP-NH2 [Compound 0265]"
  MEASURED ENDPOINT: "Cmax/D"
  VALUE UNITS: "kg/L"
  REPORTED VALUE: 0.16
- SUBSTANCE: "H-H[Aib]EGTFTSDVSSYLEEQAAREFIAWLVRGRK([AEEA-AEEA-γGlu-Trx-C20 diacid])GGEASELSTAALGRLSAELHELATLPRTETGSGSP-NH2 [Compound 0512]"
  MEASURED ENDPOINT: "Cmax/D"
  VALUE UNITS: "kg/L"
  REPORTED VALUE: 0.13

Please state, for each entry, its recorded Cmax/D.
1. H-H[Aib]EGTFTSDVSSYLEEQAARK([AEEA-AEEA-γGlu-C20 diacid])FIAWLVRGGASELSTAALGRLSAELHELATLPRTETGSGSP-NH2 [Compound 0580]
2. H-H[Aib]EGTFTSDK([AEEA-AEEA-γGlu-C16 diacid])SSYLEEQAAREFIAWLVRGRGGGGGEASELSTAALGRLSAELHK([AEEA-AEEA-γGlu-C16 diacid])LATLPRTETGSGSP-NH2 [Compound 0259]

**Result**
0.38
0.48
